Reference for the values: the supplement of paper PMC11417369

Tested on: PF3D7_0420300 AP2 domain 1 (GST-tagged)
Assay: gcPBM binding intensity (ln(normalized median fluorescence intensity)); higher = stronger DNA binding
Whole data set: some 25,000 sequences, median “ln(normalized median fluorescence intensity)” near 9.3, cut for the highest 2% near 10. The list comes from a sample in which the highest values are over-represented; it also holds close analogues and randomly drawn sequences.
READOUT: gcPBM binding intensity (ln)

INSERT INTO results (sequence_chain, observed_result) VALUES
  ('CAAACAAACAGACACACACACACACCCAAAAATGAT [CACACA_site2430]', 10.4),
  ('CAAAAAAAATTATACACACACACACCGATATATATA [CACACA_site4719]', 10.2),
  ('TTATATTCTAGAGACACATGCGATTTTTTATTTTAT [TGCATGCA_site649]', 9.42),
  ('TATAAACACCCATATAAACACACATATAAACCAACA [CACACA_site8790]', 9.79),
  ('TATATACATAAAATTTGTACATATATATATATATAT [XGTACX_site3214]', 9.28),
  ('TATACTTTATATATTTTGTATATATATTTTTTTTAT [TGCATGCA_negctrl_site530]', 9.34),
  ('CATTTATTTTTGTTCTGTACATAAAGATGAACAAAA [XGTACX_site6797]', 8.81),
  ('TATATATTGCCCTTCACACACACACCGATATATATA [CACACA_site5390]', 10.2);

I have 8 sequences here; please give me gcPBM binding intensity (ln) for each one.
1. ATAAATATCATATATATACACACGTAATACATAATA [CACACA_site4001]
2. TATTGCCCTGGACACACACACATATATATATATATA [CACACA_site5389]
3. TATACACCCAGACACACACACACACCCAAAAAAAAA [CACACA_site497]
4. CACCCATACAGACATACACACACATATATATTAATA [CACACA_site8077]
5. TTCAAAGACACAATCACACACATACATAAATATACA [CACACA_site687]
6. TATATATATATATATGCATGTACATATATTTGTTAT [TGCATGCA_site379]
7. ATATATATATAATAAGTGCAAAAAAAAGAAAAAAAT
8. TTAACAAATGGACACACACACACACCCAAAAAAAAA [CACACA_site4443]

Key:
1: 9.56; 2: 9.88; 3: 10; 4: 9.87; 5: 9.84; 6: 9.57; 7: 9.74; 8: 9.91

I have 7 sequences here; please give me gcPBM binding intensity (ln) for each one.
1. GGAGCACCCAGACACACACACACATATATATATATA [CACACA_site336]
2. TATATATTGCCCTTCACACACACACCCATATATATA [CACACA_site2493]
3. AGCACAGACGGACACACACACACACCCACAGACACA [CACACA_site4358]
4. AGCACAGACGGACACACACACATATATATATATATA [CACACA_site4341]
5. AGTAACTAATTAAATGCATGTCGATATATATTATAT [TGCATGCA_site1038]
6. AACAAACACAGACACACACACACACTAATATGATTA [CACACA_site8770]
7. CACGCGCACCAACACACACACACACCCATATATATA [CACACA_site2204]

Key:
1: 10.1; 2: 10.2; 3: 10.2; 4: 9.88; 5: 9.35; 6: 10.2; 7: 10.3

I have 5 sequences here; please give me gcPBM binding intensity (ln) for each one.
1. CTTATATATTGCCCTTCACACACACCCATATATATA [CACACA_site8795]
2. TACATATTTTTCTTTTCACACATGGAAAAAAAAGGT [CACACA_site5146]
3. AAAAAAAAAAAACACACACACACATTCAATATAAAA [CACACA_site40]
4. AAAAAAAAAAAAAATACACACACACCGATATATATA [CACACA_site8142]
5. TATATACATATATACACACACATATATATATATATA [CACACA_site2805]

Key:
1: 10.1; 2: 9.11; 3: 10; 4: 10.1; 5: 9.6

I have 4 sequences here; please give me gcPBM binding intensity (ln) for each one.
1. CACCCACACCAACACACACACATATATATATATATA [CACACA_site362]
2. TAGACTCCCAGACACACACACACACCCATATAATAT [CACACA_site593]
3. AATATGAACAGACACACACACACAAAAAAAAAAAAA [CACACA_site2012]
4. ATATTACGCACAAAAAAAAAAAAAAAAAAAAAAAAA [CACACA_negctrl_site941]

Key:
10.1
10.2
10
8.77

I have 4 sequences here; please give me gcPBM binding intensity (ln) for each one.
1. CGCGCACCCAGACACACACACACACCGATATATATA [CACACA_site8687]
2. TGATTCATTGATAAGGGTACATTTATAATTATGATA [XGTACX_site6319]
3. TATACATACATACATACACACACACCGATATATATA [CACACA_site7896]
4. ATTATATAATTGTCTTCACACACACCGATATATATA [CACACA_site8883]

Key:
10.2
9.02
10.1
9.93

I have 2 sequences here; please give me gcPBM binding intensity (ln) for each one.
1. TATTATTCTACTATTATATTCTATATTATTTATAGT [CACACA_negctrl_site499]
2. CAAACAAACGGACACACACACACACCCAAAAATGAT [CACACA_site5363]

Key:
[9.37, 10.1]
